Target: human TLR8 (Homo sapiens, UniProt Q9NR97)
Construct: host or cells: HEK-Blue cells (HEK293-derived reporter line)
Sequence (Q9NR97 27-1041): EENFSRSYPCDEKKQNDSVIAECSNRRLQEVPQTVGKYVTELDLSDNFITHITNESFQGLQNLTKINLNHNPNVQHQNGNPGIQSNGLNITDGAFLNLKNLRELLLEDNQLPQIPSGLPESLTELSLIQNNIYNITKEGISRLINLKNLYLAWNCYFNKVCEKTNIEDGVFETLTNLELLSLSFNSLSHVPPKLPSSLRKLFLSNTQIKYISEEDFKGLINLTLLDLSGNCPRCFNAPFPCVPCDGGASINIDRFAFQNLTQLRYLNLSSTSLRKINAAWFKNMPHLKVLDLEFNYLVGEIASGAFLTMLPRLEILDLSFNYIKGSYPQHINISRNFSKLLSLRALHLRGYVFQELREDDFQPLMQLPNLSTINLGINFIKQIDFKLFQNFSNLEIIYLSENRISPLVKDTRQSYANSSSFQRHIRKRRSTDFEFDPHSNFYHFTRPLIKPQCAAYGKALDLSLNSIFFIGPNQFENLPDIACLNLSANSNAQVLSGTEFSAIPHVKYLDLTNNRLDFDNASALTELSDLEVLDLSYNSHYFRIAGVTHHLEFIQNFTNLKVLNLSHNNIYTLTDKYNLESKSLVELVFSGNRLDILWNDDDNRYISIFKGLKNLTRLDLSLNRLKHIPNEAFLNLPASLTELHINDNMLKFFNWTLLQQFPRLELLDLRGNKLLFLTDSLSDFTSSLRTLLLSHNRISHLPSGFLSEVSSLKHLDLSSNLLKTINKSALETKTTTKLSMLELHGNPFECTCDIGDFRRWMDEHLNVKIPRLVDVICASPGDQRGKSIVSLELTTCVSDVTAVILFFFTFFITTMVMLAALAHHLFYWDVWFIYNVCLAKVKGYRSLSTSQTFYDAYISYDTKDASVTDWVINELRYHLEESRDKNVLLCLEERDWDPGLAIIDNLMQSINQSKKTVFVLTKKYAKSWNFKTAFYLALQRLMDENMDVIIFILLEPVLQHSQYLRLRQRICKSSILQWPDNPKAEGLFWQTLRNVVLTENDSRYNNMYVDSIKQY
Test: TLR8 inhibition reporter assay (HEK-Blue SEAP)
Format: cell-based
Conditions: HEK-Blue cells overexpressing human TLR8, R848 15.9 μM, 22 hour incubation
pIC50: −log10 of the molar value.
parameter: pIC50

| molecule | pIC50 |
| --- | --- |
| COc1cc(-c2[nH]c3ccc(C4CCN(CCNC(=O)CCCCCCCCCC(=O)NCCN5CCC(c6ccc7[nH]c(-c8cc(OC)c9ncnn9c8)c(C(C)C)c7c6)CC5)CC4)cc3c2C(C)C)cn2ncnc12 [Example 4] | 9.66 |

A. COc1cc(-c2[nH]c3ccc(C4CCN(CCNC(=O)CCCCCCCCC(=O)NCCN5CCC(c6ccc7[nH]c(-c8cc(OC)c9ncnn9c8)c(C(C)C)c7c6)CC5)CC4)cc3c2C(C)C)cn2ncnc12 [Example 7]
B. COc1cc(-c2[nH]c3ccc(C4CCN(CCNC(C)=O)CC4)cc3c2C(C)C)cn2ncnc12 [Comparator Compound C5, reference compound]
C. COc1cc(-c2[nH]c3ccc(C4CCN(CCNC(=O)CCC(=O)NCCN5CCC(c6ccc7[nH]c(-c8cc(OC)c9ncnn9c8)c(C(C)C)c7c6)CC5)CC4)cc3c2C(C)C)cn2ncnc12 [Example 11]
Rank the 3 molecules: largest pIC50 first, smallest last. When ranking, write the labels in the order the request describes. A, B, C
